Listing of recorded Cocklebur plant response rating by entry.
# Test system: cocklebur
# Assay text: Test B pre-/postemergence herbicide test
# Type: in vivo, Xanthium strumarium
# Measurement conditions: postemergence, 125 g ai/ha; scale 0 to 100
When you answer, write just the number.

Problem: Given C=CCNC(=O)c1ccc(F)c(NC(=O)c2cc(C(C)(C)C)nn2CC)c1 , state its recorded Cocklebur plant response rating.
Solution: 60

Problem: Name the recorded Cocklebur plant response rating for CCn1nc(C(C)(C)C)cc1C(=O)Nc1cccc(OS(=O)(=O)CC)c1 .
Solution: 60

Problem: Returns the measured Cocklebur plant response rating for the input molecule. Input: CCc1nn(C(C)C)nc1C(=O)Nc1cccc(C(=S)N(C)C)c1
Solution: 0

Problem: Endpoint output: Cocklebur plant response rating of Cc1nn(C(C)(C)C)nc1C(=O)Nc1cccc(C(=O)N(C)C)n1 . Value?
Solution: 0

Problem: What does the data say about its Cocklebur plant response rating? Entry: C=CCNC(=O)c1cccc(NC(=O)c2nn(C(C)(C)C)nc2C)n1
Solution: 20

Every entry's value here was drawn from patent US20060069132A1.
